# measurement protocol: yeast display, Sf9 membrane polyspecificity reagent, FACS + sequencing; frameworks hold sequencing errors
measured property: polyreactivity (PSR sort gate)

Worked examples, 5 sequences total:
QVQLVESGGGLVQAGGSLRLSCAASGIIFSPYAMGWYRQAPGKERELVAAITNNGGGTYYADSVKGRFTISRDNAKNTVYLQMNSLKPEDTAVYYCAAEGFLEYPYYIWYDYWGQGTQVTVSS : high polyreactivity
QGQLVESGGRLVQAGVSLRLSCAASGFIFPKYAMGWYRQAPGKERELVAVITWRSGSTYYADSVKGRFTISRDNAKNTVYLQMNSLKTEETADYYCNARRSSGRYSKMGYWGQGTQVTVSS : high polyreactivity
QVQLVESGGGLVQAGGSLRLSCAASGRTFQNYAMGWYRQAPGKERELVADITSGGSTYADSVKGRFTISRDNAKNTVYLQMNSLKPEDTAVYYCNADRTYPEPAEYYYWGQGTQVTVSS : low polyreactivity
QVQLVESGGGLVQAGGSLRLSCAASGSTFPSYAMGWYRQAPGKERELVAAISGSGTSTYYADSVKGRFTISRDNAKNTVYLQMNSRKPEDTAVYYCRAVWLSTYLGWGRDYWGQGTQVTVSS : high polyreactivity
QVQLVESGGGLVQAGGSLRLSCAASGRIFVGYAMGWSRQAPRNERELVAAISDRGGNTYYADSVKGRFTISRDNAKNTVYFQMNSLKPEDTAVYYCAKEVRWWYGYWGQGTQVTVSS : high polyreactivity

Summary for this sequence, "QVQLVESGGGLVQAGGSLRLSCAASGIIFTGYAMGWYRQAPGKERELVAAISDTGGSTYYADSVKGRFTISRDNAKNTVYLQMNSLKPEDTAVYYCAADWWSRYYYWGQGTQVTVSS" : polyreactivity (PSR sort gate) is high polyreactivity

Summary for this sequence, "QVQLVESGGGLVQAGGSLRLSCAASGRTFGANVMGWYRQAPGKERELVARISNGGRTSYADSVKARFTISRDNAKNPVYLQMNSLKPEDTAVYYCAALVVNVFPRYGYWGQGTQVTVSS" : polyreactivity (PSR sort gate) is high polyreactivity

Summary for this sequence, "QVQLVESGGGLVQAGGSLRLSCAASGSNFDDNAMGWYRQAPGKERELVAAINSTDITNYADSVKGRFTISRDNAKNTVYLQMTSLKPEDTAVYYCNVDDWGQGTQVTVSS" : polyreactivity (PSR sort gate) is low polyreactivity

Summary for this sequence, "QVQLVESGGGLVQAGGSLRLSCAASGSIFGYYTMGWYRQAPGKERELVATITSGGSTYYADSVKGRFTISRDNAKNTDYLQMNSLKPEDTAVYYCNARTAQNVVLYDFGYWGQGTQVTVSS" : polyreactivity (PSR sort gate) is high polyreactivity

Summary for this sequence, "QVQLVDSCGGLVQAGGSLSLSCAASGRTFTRYAMGWYRQAPGKERELVASITNGGGTYYADSVKGRFTISRDNAKNTVYLQMNSLKPEDTAVYYCAKAERVTSHIYYSWGQGTQVTVSS" : polyreactivity (PSR sort gate) is low polyreactivity

Summary for this sequence, "QVQLVESGGGLVQAGGSLRLSCAASGLIFNYNSMGWYLQAPGKEMELVAVITSGDSTNYADSVKGRFTISRDNAKNTVYLQMNSLKPEDTAVYYCNADYVYSGGRYYGKDYWFDYWGQGTQVTVSS" : polyreactivity (PSR sort gate) is low polyreactivity

Summary for this sequence, "QVQLVESGGGLVQAGGSLRLSCATSGYTFTRYAMGWYRQAPGKERELVASISKTGGITYYADSVKGRFTISRDNAKNTVYLQMNSLKPEDTAVYYCNAVSKRRWAKYDYWGQGTQVTVSS" : polyreactivity (PSR sort gate) is high polyreactivity

Summary for this sequence, "QVQLVESGGGLVQAGGSLLLSCAPSGITFVWYAMVWYRQAPGKERELVAAISRGGSTYYADSVKGRFTISRDNAKNTVYLQMNSLKPVDTAVYYCAARAPYIQQSVHISPRYYYSGQGTQVTVSS" : polyreactivity (PSR sort gate) is high polyreactivity

Summary for this sequence, "QVQLVESGRGLVQAGGSLRLSCAASGRIIRWNAMGWYRQAPGKERELVAGISGSGGSTYYADSVKGRFTISRDNAKNTVYLQMNSLKPEDTAVYYCAADHYRSRYDYWGQGTQVTVSS" : polyreactivity (PSR sort gate) is low polyreactivity

Summary for this sequence, "QVHLVESGGGLVQAGGSLRLSCAASGSTFYYNAIGWYRQAPGKERELVARISRSGGSTYADSVKGRFTISRDKAKNTFYLQMNSLKPEDTAVYYCNADAYGTPEFTSYAVRYDYWGQGTQVTVSS" : polyreactivity (PSR sort gate) is low polyreactivity

Summary for this sequence, "QVQLVESGGGLVHAGGSLRISCAASGRTFSRNAMGWYRQAPGKERELVATISRRGGSTNYADSVKGRFTISRDYAKNTVYLQMNSLKPDDTAVYYCAAGYRVRDDKVYGIVRPMDYWGQGTQVTVSS" : polyreactivity (PSR sort gate) is high polyreactivity
